- Protocol details: thallium influx changes without GIRK channels – cell-based, HEK-293 rmGlu8, no GIRK, thallium flux, counter-screen for GIRK activator project, confirmation (AID 623868);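 also: extra codes mark interference with 3 for fluorescent and 4 for baseline rise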
- Experimental setup: thallium flux fluorescence, at 10 µM, actives lie on both sides, codes: 1 enhancer, -1 blocker, 0 none, thallium stimulus containing EC20 glutamate
In all, about 2,100 compounds went through this assay and about 760 (36%) were called active.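 The calls were made as follows: active = thallium-flux fluorescence traces judged by eye to show enhanced or reduced glutamate response, manual score 1 or -1, so both directions (some results past the limit were not filed as active); inactive = the rest, including fluorescent or raised-baseline compounds.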 The list is a sample of the results.
API: response.call in y = active, n = inactive

[ask] What did this assay record as the result for `C/C(=N/NC(=O)c1ccncc1)c1cc2ccc(O)cc2oc1=O` ?
[reply] n

[ask] Test call for this compound, please: `COc1ccc2cc(C(=O)Nc3ccccc3)sc(=O)c2c1OC`
[reply] n

[ask] # outcome recorded in this test, key = `CCN(CC)c1ccc2cc(C=O)c(=O)oc2c1`
[reply] n

[ask] Hey, what did the test say about `Cc1cc(C)c2c(c1)/C(=N/NC(=S)Nc1ccc(F)cc1)CCC2` ?
[reply] n

[ask] What did this assay record as the result for `S=C(NN=C1CCCCCC1)Nc1ccc(Cl)cc1` ?
[reply] y

[ask] Hello, I am checking results. What call was entered for `CCOC(=O)c1cc2n(c1N)-c1ccccc1C2=O` ?
[reply] n

[ask] In this assay, the call recorded for `Cc1ccc(C)c(NC(=S)N=Nc2c(O)n(C)c3ccc(S(=O)(=O)N4CCOCC4)cc23)c1` was what?
[reply] y

[ask] Look up the recorded call for `CCSc1nnc(NC(=O)c2nn(C(C)C)c(=O)c3ccccc23)s1` in this test.
[reply] n

[ask] Dear colleague, could you share the recorded outcome for `COc1ccc(-c2nnc(CSc3nc4ccccc4c(=O)n3C)o2)cc1OC` when you have a moment?
[reply] y

[ask] Query: recorded result category for `CCn1c(-c2cc(-c3cccc(OC)c3)nc3ccccc23)n[nH]c1=S` in this test
[reply] n

[ask] Per the assay record, what outcome was assigned to `CCOc1ccc(NC(=O)Cn2nnc(-c3ccccc3F)n2)cc1` ?
[reply] n

[ask] Record lookup: outcome of this test for `CCOCc1c(C(=O)OCC(=O)Nc2ccc(C)c(S(=O)(=O)N(C)C)c2)oc2ccccc12` ?
[reply] n

[ask] Test call, this compound: `O=C(NCc1cccs1)c1cccnc1C(=O)O`
[reply] n

[ask] Short answer needed: outcome of this test for `O=C(c1cnn2c(C(F)(F)F)cc(-c3cccs3)nc12)N1CCN(Cc2ccccc2)CC1` ?
[reply] n

[ask] Recorded call for `CN(C)Cc1cc(C(C)(C)C)c(O)c(C(C)(C)C)c1` ?
[reply] n

[ask] Each compound tested received a call. Report the one for `Fc1ccccc1CNC(=S)Nc1ccc(Cl)cc1` .
[reply] n

[ask] Please let me know the test result on file for `Fc1ccc(NC(=S)NCc2ccccc2Cl)cc1` .
[reply] n

[ask] What call does the record list for CC(C)(C)NC(=O)C(c1ccncc1)N(C(=O)c1csnn1)c1ccccc1 (stereo not drawn) ?
[reply] n

----------
- Protocol details: thallium influx changes without GIRK channels – cell-based, HEK-293 rmGlu8, no GIRK, thallium flux, counter-screen for GIRK activator project, confirmation (AID 623868);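 also: extra codes mark interference with 3 for fluorescent and 4 for baseline rise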
- Experimental setup: thallium flux fluorescence, at 10 µM, actives lie on both sides, codes: 1 enhancer, -1 blocker, 0 none, thallium stimulus containing EC20 glutamate
Hit rate of the full screen: of about 2,100 compounds, about 760 (36%) were called active. Only a sample is shown.
Please assign 0 (no) whenever manual score is at or above 0, and 1 (yes) whenever it is below.

[ask] In the record for `COc1ccc(/C(C)=N/NC(=S)NCc2ccco2)cc1` , is manual score less than 0?
[reply] 0 (no)

[ask] Hello, is manual score of the following molecule strictly smaller than 0? Cc1ccc(C2CC2c2n[nH]c(=S)n2-c2ccc(C)cc2)cc1 (centres undefined)
[reply] 0 (no)

[ask] Does this molecule meet the criterion manual score < 0? `CCc1nc(SCc2ccc(F)cc2)[nH]c(=O)c1C#N`
[reply] 0 (no)

[ask] For `CC(C)Cn1c2c(c(O)c(C(=O)Nc3ncccc3O)c1=O)CCCC2` , is the recorded manual score below the cut-off of 0?
[reply] 1 (yes)

[ask] I'd appreciate it if you could check whether `O=C(COc1ccc(Br)cc1Br)NC(=S)N1CCCc2ccccc21` has manual score smaller than 0.
[reply] 0 (no)

[ask] I wonder whether `CCC(CC)c1nnc(NC(=O)c2ccc3ccccc3n2)s1` has manual score below 0. Can you tell?
[reply] 0 (no)

[ask] Say whether its manual score is strictly beneath 0. Entry: Cc1ccccc1NC(=S)NNC(=O)c1csc2c1CCC(C)C2 (centres undefined)
[reply] 0 (no)

[ask] Please state whether manual score is below 0 for CCC1=NN(C(=O)c2cccc(Br)c2)C(O)(c2ccc(Br)cc2)C1 (centres undefined)
[reply] 0 (no)

[ask] Check if manual score falls below 0 for `Cc1cccc(NC(=S)NNC(=O)c2csc3c2CCCC3)c1` .
[reply] 0 (no)

[ask] Field: below-cutoff. Rule: recorded manual score strictly less than 0. Subject: `N#Cc1c(-c2ccco2)nc(SCc2ccc(F)cc2)[nH]c1=O`
[reply] 1 (yes)

[ask] A record lists Cc1ccc(C)c(NC(=S)NNC(=O)c2cc3c(s2)CCC(C)C3)c1 (centres undefined) . Is its manual score below 0?
[reply] 0 (no)

[ask] hey, is manual score for `COc1ccccc1-c1ccc(NC2CCCC2)nn1` lower than 0 or not?
[reply] 1 (yes)

[ask] Determine if `COc1ccc(N2CCCn3c2nc2c3c(=O)n(Cc3ccccc3F)c(=O)n2C)c(OC)c1` shows manual score strictly lower than 0.
[reply] 1 (yes)

[ask] Is manual score of CCOC(=O)C1=NN(C(=O)c2ccccc2)C(O)(c2ccc(C)cc2)C1 (centres undefined) strictly below 0?
[reply] 0 (no)

[ask] Say whether its manual score is strictly beneath 0. Entry: `S=c1[nH]nc(-c2cc3ccccc3o2)n1Cc1ccccc1`
[reply] 0 (no)

[ask] Given the entry `CCSc1nc(-c2ccccc2)c(C#N)c(=O)[nH]1` , would its reported manual score be below 0?
[reply] 1 (yes)

[ask] Is the reported manual score for `S=c1[nH]nc(-c2ccc(Br)o2)n1Cc1ccccc1` strictly below 0?
[reply] 0 (no)

[ask] In the record for `CCOC(=O)Cc1csc(NC(=S)NC(=O)c2ccccc2Br)n1` , is manual score less than 0?
[reply] 0 (no)

----------
- Protocol details: thallium influx changes without GIRK channels – cell-based, HEK-293 rmGlu8, no GIRK, thallium flux, counter-screen for GIRK activator project, confirmation (AID 623868);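 also: extra codes mark interference with 3 for fluorescent and 4 for baseline rise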
- Experimental setup: thallium flux fluorescence, at 10 µM, actives lie on both sides, codes: 1 enhancer, -1 blocker, 0 none, thallium stimulus containing EC20 glutamate
Among all 2,100 compounds or so, about 760 (36%) were called active.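 The calls were made as follows: active = thallium-flux fluorescence traces judged by eye to show enhanced or reduced glutamate response, manual score 1 or -1, so both directions (some results past the limit were not filed as active); inactive = the rest, including fluorescent or raised-baseline compounds.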 Only a sample is shown.
Answer with one of the outcomes active, inactive

[ask] Just curious, what result did `O=c1c2ccccc2[nH]c(=S)n1C1CCCCC1` get here?
[reply] active

[ask] Test call for this compound, please: `S=C(N/N=C/c1ccc(Cl)cc1)N1CCOCC1`
[reply] active

[ask] What did this assay record as the result for `CCN1CCN(C(=O)c2ccc3c(=O)n(C4CCCC4)c(=S)[nH]c3c2)CC1` ?
[reply] inactive

[ask] Each compound tested received a call. Report the one for CC(CCc1ccccc1)NC(=O)N1CCOCC1 (centres undefined) .
[reply] inactive

----------
- Protocol details: thallium influx changes without GIRK channels – cell-based, HEK-293 rmGlu8, no GIRK, thallium flux, counter-screen for GIRK activator project, confirmation (AID 623868);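 also: extra codes mark interference with 3 for fluorescent and 4 for baseline rise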
- Experimental setup: thallium flux fluorescence, at 10 µM, actives lie on both sides, codes: 1 enhancer, -1 blocker, 0 none, thallium stimulus containing EC20 glutamate
About 760 (36%) of roughly 2,100 compounds were called active.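 Rule for the calls: active = thallium-flux fluorescence traces judged by eye to show enhanced or reduced glutamate response, manual score 1 or -1, so both directions (some results past the limit were not filed as active); inactive = the rest, including fluorescent or raised-baseline compounds.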 A selection follows.
Response enum: yes (1) (active), no (0) (inactive)

[ask] # outcome recorded in this test, key = `N#CCCn1nc(-c2ccc(Cl)cc2)cc1Nc1ccccc1NC(=O)C(F)(F)F`
[reply] no (0)

[ask] Assay outcome for `CC(=O)CN1Cc2ccccc2/C1=N\C(=O)Nc1ccccc1` : what was it?
[reply] no (0)

[ask] Outcome? `Cc1ccc(C(=O)CC(=O)COc2ccc(Cl)cc2C)cc1`
[reply] yes (1)

[ask] I'd appreciate the recorded outcome for `Cc1ccc(N=C2CCCN2Cc2ccccc2)c(C#N)c1` from this test.
[reply] yes (1)

[ask] Can you look up the reported call for CN1C=CC2=C(C#N)C(N)C(C#N)(C#N)C(c3ccccc3)C2C1 (stereo unspecified) for me?
[reply] no (0)

[ask] Write down the call the test reported for this compound. Item: `COc1ccc(OCCCN2CCCCCC2)cc1`
[reply] no (0)

[ask] For `O=C(COc1ccccc1)NNC(=S)NC(=O)c1ccc(Cl)cc1Cl` , what call appears in the results of this test?
[reply] yes (1)

[ask] Please state the recorded outcome for this compound: `C=CCn1c(=S)[nH]c2ccccc2c1=O`
[reply] yes (1)

[ask] What call does the record list for `N=c1oc2ccc3ccccc3c2cc1-c1nc(-c2ccccc2)cs1` ?
[reply] no (0)

[ask] // return assay outcome for `Cc1c(C#N)c2ccccc2n1CC(=O)O`
[reply] no (0)

[ask] Record lookup: outcome of this test for `CS(=O)(=O)c1ccc2nc(NC(=O)Nc3ccc(Cl)c(Cl)c3)sc2c1` ?
[reply] no (0)

[ask] Kindly provide the recorded test outcome for the following compound: `Cc1ccc(Cn2c(SCC(=O)N3CC(=O)Nc4ccccc43)nc3ccccc3c2=O)cc1`
[reply] yes (1)

[ask] In this assay, the call recorded for `Cc1sc2nc(C3CC3)nc(SCC(=O)N3CC(=O)Nc4ccccc43)c2c1C` was what?
[reply] yes (1)

[ask] For O=C(CSc1nc2ccccc2[nH]1)NC1CCCc2ccccc21 (stereo unspecified) , which call appears in the assay record?
[reply] no (0)

[ask] Dear colleague, could you share the recorded outcome for `CCc1nc(SCC(=O)Nc2nnc(CC)s2)c2c(C)c(C)sc2n1` when you have a moment?
[reply] yes (1)

[ask] So what was the verdict on `O=C(CN1C(=O)/C(=C/c2ccccc2F)Oc2ccccc21)N1CCN(c2ccccn2)CC1` in this test?
[reply] no (0)

[ask] What classification did `O=C(CSc1ccccc1)N(c1ccc(Br)cc1)c1nccs1` end up with in this test?
[reply] no (0)

[ask] Hi, do you know how `CCc1ccc2c(c1)c(N=NC1=NC(=O)CS1)c(O)n2C` came out in this test?
[reply] yes (1)

[ask] Short answer needed: outcome of this test for `O=c1c(-c2ccc(Cl)cc2)[n+]([O-])c2ccccc2n1O` ?
[reply] yes (1)

[ask] Write down the call the test reported for this compound. Item: `Cc1cc(N2CCN(c3ccccc3)CC2)nc(NCc2ccccc2)n1`
[reply] no (0)

[ask] Field: outcome | Entry: N#CC(c1cccc(Cl)c1)c1ccc2c(C(F)(F)F)cc(C(F)(F)F)nc2n1 (stereo unspecified)
[reply] no (0)

[ask] For `C=CCn1c(=S)[nH]c2ccc(Br)cc2c1=O` , what call appears in the results of this test?
[reply] yes (1)

[ask] // return assay outcome for Cc1ccc(N(C(=O)CCC(=O)Nc2cc(C)on2)C(C(=O)NC2CCCC2)c2cccs2)cc1 (stereo unspecified)
[reply] no (0)

[ask] Given CCOC(=O)C1=C(C)NC2=C(C(=O)C(C(=O)OCC)C(c3cccc(OC)c3)C2)C1c1ccccn1 (stereo unspecified) , state the outcome it received in this test.
[reply] no (0)

[ask] Write down the call the test reported for this compound. Item: `CSC1=NSC2=NC(=O)/C(=C/c3coc4ccccc4c3=O)C(=N)N12`
[reply] no (0)

[ask] Dear all, I need the recorded test outcome for CC(C)CC(NS(=O)(=O)c1ccc2c(c1)oc(=O)n2C)C(=O)NC1CCCc2ccccc21 (stereo unspecified) , thank you.
[reply] no (0)

[ask] For this compound, state the assay outcome: `NS(=O)(=O)c1ccc(S(=O)(=O)N2CCCC2)cc1`
[reply] no (0)

[ask] For `O=C(O)CC/C(=C\c1cc([N+](=O)[O-])ccc1Cl)c1nc2ccccc2s1` , what call appears in the results of this test?
[reply] yes (1)

[ask] State the result this test recorded for `CCn1c(O)c(N=NC2=NC(=O)CS2)c2cc(C)ccc21` .
[reply] yes (1)

[ask] For `COc1ccc2nc(NC(=S)N(C)C)sc2c1` , which call appears in the assay record?
[reply] yes (1)

[ask] Just curious, what result did `CCc1nnc(NC(=O)CSc2nnc(-c3c[nH]c4ccccc34)n2CC)s1` get here?
[reply] no (0)

[ask] Given `O=C(CSc1c[nH]c2ccccc12)NCc1ccc2c(c1)OCO2` , state the outcome it received in this test.
[reply] no (0)

[ask] Returns: the outcome recorded for `CCSc1nnc(NC(=O)NC(CC)(C(F)(F)F)C(F)(F)F)s1` in this assay.
[reply] no (0)

[ask] Which outcome did this test record for the compound Cc1cccc(S(=O)(=O)NC(Cc2c[nH]c3ccccc23)C(=O)O)c1 (stereo unspecified) ?
[reply] no (0)

[ask] For `Cc1ccc(C)c(NC(=S)c2nc3ccccc3s2)c1` , which call appears in the assay record?
[reply] yes (1)

[ask] Call for entry `Cc1ccc(OC(=S)Nc2ccccc2)c(C)c1` :
[reply] no (0)
